Sourced from ChEMBL document CHEMBL1130583

Data export: Ki values recorded with Prothrombin (Homo sapiens, UniProt P00734).
measured-parameter: Ki (nM)

Guide cases for Ki, answers given:
CCCc1ccc(S(=O)(=O)N[C@@H](Cc2ccc(CN)cc2)C(=O)N(C)C2CCCC2)cc1 | 9.6
CN(C(=O)[C@H](Cc1ccc(CN)cc1)NS(=O)(=O)c1ccc2cc3ccccc3cc2c1)C1CCCC1 | 5.7
CN(C(=O)[C@H](Cc1ccc(CN)cc1)NS(=O)(=O)c1ccc(C2CCCCC2)cc1)C1CCCC1 | 20.1

1. CN(C(=O)[C@H](Cc1ccc(CN)cc1)NS(=O)(=O)c1ccc2c(c1)CCCC2)C1CCCC1
2. CN(C(=O)[C@H](Cc1ccc(CN)cc1)NS(=O)(=O)c1ccc2ccccc2c1)C1CCCC1
3. COc1ccc2cc(S(=O)(=O)N[C@@H](Cc3ccc(CN)cc3)C(=O)N(C)C3CCCC3)ccc2c1
[Q] Your job: order these 3 records by Ki, ascending. Put the labels in the order asked and list them.
[A] 3, 1, 2
